Data credit: patent US20080020978A1

Entries and their IC50 values follow.
- measured on: CGRP1 receptor (CRLR/RAMP1 complex) of human neuroblastoma SK-N-MC cells (human, UniProt Q16602 23-461; O60894 27-148)
- Sequence (Q16602 23-461, chain 1 of 2): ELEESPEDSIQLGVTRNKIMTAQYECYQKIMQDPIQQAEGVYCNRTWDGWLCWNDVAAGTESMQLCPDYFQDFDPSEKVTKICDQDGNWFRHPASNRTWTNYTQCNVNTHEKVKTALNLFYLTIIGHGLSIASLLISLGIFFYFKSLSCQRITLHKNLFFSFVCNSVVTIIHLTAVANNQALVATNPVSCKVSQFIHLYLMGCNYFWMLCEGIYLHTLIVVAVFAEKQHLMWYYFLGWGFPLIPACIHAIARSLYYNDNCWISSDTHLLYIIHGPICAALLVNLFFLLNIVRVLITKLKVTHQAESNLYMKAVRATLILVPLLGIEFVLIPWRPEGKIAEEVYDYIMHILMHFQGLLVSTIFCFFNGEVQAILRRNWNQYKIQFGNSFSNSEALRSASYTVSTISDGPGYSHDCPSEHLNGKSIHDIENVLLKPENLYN
- Sequence (O60894 27-148, chain 2 of 2): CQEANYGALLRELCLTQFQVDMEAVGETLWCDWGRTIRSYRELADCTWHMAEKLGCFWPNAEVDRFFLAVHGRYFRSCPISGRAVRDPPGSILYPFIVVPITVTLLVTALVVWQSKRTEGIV
- protocol notes: cell-based or functional assay
3IPA = not defined here
The figure you give is taken to be in pM; do not add the unit.

Answered cases to consult:
binder	IC50 (pM)
Ac-WVTHRLAGLLSRSGGVVRC(40 kDa branched MeO‑PEG2)NFVPTDVGPFAF-NH2 [SEQ ID NO 769]	33400
{Ac-3IPA}-VTHRLAGLLSRSGGVVRCNFVPTDVGPFAF-NH2 (reading uncertain; also: places 3IPA at position 1, printed as Ac-[3IPA]-VTHRLAGLLSRSGGVVRCNFVPTDVGPFAF-amide) [SEQ ID NO 778]	350

Kindly consider the entry below.
What value of measured IC50 is listed for Ac-WVTHRLAGLLSRSGGVK(20 kDa MeO‑PEG)RNNFVPTDVGPFAF-NH2 [SEQ ID NO 824] ?
980
